Biological target: Renin (Homo sapiens, UniProt P00797)
Sequence (P00797 whole entry): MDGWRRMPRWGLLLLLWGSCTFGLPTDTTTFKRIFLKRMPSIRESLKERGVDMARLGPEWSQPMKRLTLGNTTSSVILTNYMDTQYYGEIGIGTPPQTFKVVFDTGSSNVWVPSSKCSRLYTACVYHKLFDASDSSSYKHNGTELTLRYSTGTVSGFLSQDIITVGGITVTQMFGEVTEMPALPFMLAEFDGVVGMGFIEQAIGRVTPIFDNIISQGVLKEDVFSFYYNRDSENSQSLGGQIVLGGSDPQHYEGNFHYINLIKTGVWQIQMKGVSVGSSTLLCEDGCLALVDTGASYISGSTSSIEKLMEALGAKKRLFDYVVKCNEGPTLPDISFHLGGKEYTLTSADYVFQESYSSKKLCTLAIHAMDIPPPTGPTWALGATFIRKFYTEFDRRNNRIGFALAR
Assay: In vitro potency against plasma renin at a pH of 7.4
Format: cell-free
READOUT TYPE: IC50 (µM)
Report as a plain number; the unit µM is understood.

QUERY: Can you share its IC50? I mean this compound: COCOC1CCN(C(=O)[C@H](Cc2ccccc2)O[C@@H](C)C(=O)N[C@@H](CC2CCCCC2)[C@@H](O)[C@@H](O)CC(C)C)CC1
RESULT: 0.34

QUERY: Name the reported IC50 value associated with the compound CCCC[C@H](N[C@@H](Cc1ccccc1)C(=O)N1CCOCC1)C(=O)N[C@@H](CC1CCCCC1)[C@@H](O)[C@@H](O)CC(C)C
RESULT: 1.2

QUERY: What value of IC50 has been reported for the following compound? CCCC[C@H](O[C@@H](Cc1ccccc1)C(=O)N1CCOCC1)C(=O)N[C@@H](CC1CCCCC1)[C@@H](O)[C@@H](O)CC(C)C
RESULT: 1

----------
Molecular target: Renin (Homo sapiens)
Sequence (P00797 whole entry): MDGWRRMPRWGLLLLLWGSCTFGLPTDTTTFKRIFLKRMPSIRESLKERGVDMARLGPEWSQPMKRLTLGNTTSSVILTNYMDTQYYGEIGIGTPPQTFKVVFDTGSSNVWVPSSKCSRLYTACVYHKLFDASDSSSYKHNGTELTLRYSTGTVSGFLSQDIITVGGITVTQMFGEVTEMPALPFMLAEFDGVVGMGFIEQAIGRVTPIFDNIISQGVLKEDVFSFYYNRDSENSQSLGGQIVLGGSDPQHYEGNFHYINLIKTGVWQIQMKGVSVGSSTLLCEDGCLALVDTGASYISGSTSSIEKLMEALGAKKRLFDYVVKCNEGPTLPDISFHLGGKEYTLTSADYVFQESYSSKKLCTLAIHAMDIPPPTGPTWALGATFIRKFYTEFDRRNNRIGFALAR
Assay: In vitro potency against purified renin at a pH of 6.0.
Label key: Met means IC50 under 80 nM; Not met means IC50 of 80 nM or more.

CCCC[C@H](O[C@@H](Cc1ccccc1)C(=O)N1CCOCC1)C(=O)N[C@@H](CC1CCCCC1)[C@@H](O)[C@@H](O)CC(C)C    Met

QUERY: Please let me know if CC(C)C[C@H](O)[C@H](O)[C@H](CC1CCCCC1)NC(=O)C(C)N[C@H](Cc1ccccc1)C(=O)N1CCOCC1 (single isomer, unassigned; less polar) shows IC50 below 80 nM.
RESULT: Not met

QUERY: Threshold test, IC50 < 80 nM: CCCC[C@H](O[C@@H](Cc1ccccc1)C(=O)N1CCC(OC)CC1)C(=O)N[C@@H](CC1CCCCC1)[C@@H](O)[C@@H](O)CC(C)C
RESULT: Met

----------
assay: Bioavailability in monkey (dose 10 mg/kg i.d. or 0.3 mg/kg i.v.); type: ADME, organism-based; conditions: primates, in vivo, iv
READOUT TYPE: bioavailability (%)
The figure you give is taken to be in %; do not add the unit.

QUERY: Name the recorded bioavailability for CCCCNC(=O)[C@@H](C[C@H](O)[C@H](CC1CCCCC1)NC(=O)[C@H](CCCC)N[C@@H](Cc1ccccc1)C(=O)N1CCC(OCOC)CC1)C(C)C .
RESULT: 7.1

----------
Target: Renin (Homo sapiens)
Sequence (P00797 whole entry): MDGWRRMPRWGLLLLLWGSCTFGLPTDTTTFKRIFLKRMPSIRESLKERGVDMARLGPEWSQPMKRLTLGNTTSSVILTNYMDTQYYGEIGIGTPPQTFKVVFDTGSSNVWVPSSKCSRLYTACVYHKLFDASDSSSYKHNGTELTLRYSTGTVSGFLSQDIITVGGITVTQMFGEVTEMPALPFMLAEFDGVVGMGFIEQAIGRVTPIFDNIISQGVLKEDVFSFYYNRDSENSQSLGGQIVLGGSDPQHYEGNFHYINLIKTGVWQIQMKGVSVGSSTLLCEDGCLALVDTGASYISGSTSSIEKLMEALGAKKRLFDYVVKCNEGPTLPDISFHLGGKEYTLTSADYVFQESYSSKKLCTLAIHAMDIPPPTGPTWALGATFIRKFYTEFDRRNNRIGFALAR
Test: In vitro potency against purified renin at a pH of 6.0.
Overview of reported pIC50 across a group of compounds:
The value called pIC50 is obtained by taking minus log10 of the concentration in mol/L.

Study these solved cases before continuing.
CCCC[C@@H](N[C@@H](Cc1ccccc1)C(=O)N1CCOCC1)C(=O)N[C@@H](CC1CCCCC1)[C@@H](O)[C@@H](O)CC(C)C    6.12
CCNC(=O)[C@H](Cc1ccccc1)O[C@@H](C)C(=O)N[C@@H](CC1CCCCC1)[C@@H](O)[C@@H](O)CC(C)C    6.89
CCCC[C@H](O[C@@H](Cc1ccccc1)C(=O)N1CCC(OCCC)CC1)C(=O)N[C@@H](CC1CCCCC1)[C@@H](O)[C@@H](O)CC(C)C    6.54
CCCC[C@H](O[C@@H](Cc1ccccc1)C(=O)N1CCC(O)CC1)C(=O)N[C@@H](CC1CCCCC1)[C@@H](O)[C@@H](O)CC(C)C    6.89
CCCC[C@H](O[C@@H](Cc1ccccc1)C(=O)N1CCC(OCOC)CC1)C(=O)N[C@@H](CC1CCCCC1)[C@@H](O)[C@@H](O)CC(C)C    9.00
CC(C)C[C@H](O)[C@H](O)[C@H](CC1CCCCC1)NC(=O)C(C)N[C@@H](Cc1ccccc1)C(=O)N1CCOCC1 (single isomer, unassigned; more polar)    6.00
CCCCC1CCN(C(=O)[C@H](Cc2ccccc2)O[C@@H](CCCC)C(=O)N[C@@H](CC2CCCCC2)[C@@H](O)[C@@H](O)CC(C)C)CC1    5.96
CCOC(=O)C(CCc1ccccc1)N[C@@H](CC(C)C)C(=O)N[C@@H](CC1CCCCC1)[C@@H](O)[C@@H](O)CC(C)C (single isomer, unassigned; more polar)    6.80

QUERY: Recorded pIC50 for CCOC(=O)C(CCc1ccccc1)N[C@@H](C)C(=O)N[C@@H](CC1CCCCC1)[C@@H](O)[C@@H](O)CC(C)C (single isomer, unassigned; more polar) , please?
RESULT: 6.82

QUERY: Give the measured pIC50 of CC(C)C[C@H](N[C@@H](Cc1ccccc1)C(=O)OC(C)(C)C)C(=O)N[C@@H](CC1CCCCC1)[C@@H](O)[C@@H](O)CC(C)C .
RESULT: 6.47

QUERY: Dear colleague, I am looking for the recorded pIC50 of the following compound: CCOC(=O)C(CCc1ccccc1)N[C@@H](CC(C)C)C(=O)N[C@@H](CC1CCCCC1)[C@@H](O)[C@@H](O)CC(C)C (stereo in doubt)
RESULT: 6.62

QUERY: Any idea what its pIC50 is? The compound is CCCC[C@H](N[C@@H](Cc1ccccc1)C(=O)N1CCC(OCOC)CC1)C(=O)N[C@@H](CC1CCCCC1)[C@@H](O)[C@@H](O)CC(C)C
RESULT: 8.96

----------
A collection of molecules and their measured pIC50
Target: Renin (Homo sapiens, UniProt P00797)
Sequence (P00797 whole entry): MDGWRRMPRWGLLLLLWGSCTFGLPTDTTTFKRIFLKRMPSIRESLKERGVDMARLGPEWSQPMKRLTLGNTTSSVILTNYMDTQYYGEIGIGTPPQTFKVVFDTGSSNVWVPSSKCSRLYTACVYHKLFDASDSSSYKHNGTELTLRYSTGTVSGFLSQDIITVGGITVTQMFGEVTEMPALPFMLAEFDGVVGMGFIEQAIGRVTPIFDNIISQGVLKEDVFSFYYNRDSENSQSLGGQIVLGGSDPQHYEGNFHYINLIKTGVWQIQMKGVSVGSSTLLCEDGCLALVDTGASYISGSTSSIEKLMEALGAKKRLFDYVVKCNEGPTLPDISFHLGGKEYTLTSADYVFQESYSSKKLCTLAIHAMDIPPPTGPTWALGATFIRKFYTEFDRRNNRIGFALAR
Experiment: In vitro potency against purified renin at a pH of 6.0.
Just the number, please; pIC50 means minus log10 of the concentration in mol/L.

CC(C)CC(N[C@@H](CCc1ccccc1)C(=O)OC(C)(C)C)C(=O)N[C@@H](CC1CCCCC1)[C@@H](O)[C@@H](O)CC(C)C (stereo in doubt; form 1)    5.40
CC(C)CC(N[C@@H](CCc1ccccc1)C(=O)OC(C)(C)C)C(=O)N[C@@H](CC1CCCCC1)[C@@H](O)[C@@H](O)CC(C)C (stereo in doubt; form 2)    6.00
CC(C)C[C@H](O)[C@H](O)[C@H](CC1CCCCC1)NC(=O)C(C)N[C@@H](Cc1ccccc1)C(=O)N1CCOCC1 (single isomer, unassigned; less polar)    7.07
CC(C)C[C@H](O)[C@H](O)[C@H](CC1CCCCC1)NC(=O)[C@H](C)O[C@@H](Cc1ccccc1)C(=O)N1CCCCC1    7.60

QUERY: Lab note: need pIC50 for CCCC[C@H](O[C@@H](Cc1ccccc1)C(=O)N1CCC(OCS(C)(=O)=O)CC1)C(=O)N[C@@H](CC1CCCCC1)[C@@H](O)[C@@H](O)CC(C)C on Renin (Homo sapiens, UniProt P00797), anyone have it?
RESULT: 6.11

QUERY: Field: pIC50 (Renin (Homo sapiens, UniProt P00797)). Entry: CC[C@H](O[C@@H](Cc1ccccc1)C(=O)N1CCC(OCOC)CC1)C(=O)N[C@@H](CC1CCCCC1)[C@@H](O)[C@@H](O)CC(C)C
RESULT: 9.05
